Hey, just so you know, these numbers are from ChEMBL document CHEMBL1157249.

# test_summary: Inhibition of Saccharomyces sp. alpha glucosidase by spectrophotometry
reported_endpoint: IC50

get_value(item= `CC(C)=CCc1c(C)c(CC=C(C)C)c2c(c1O)C(=O)c1c(O)cc(O)c(CC=C(C)C)c1C2` , readout=IC50) returns 12 µM

Per the records, this compound ( COC1c2c(CC=C(C)C)c(C)cc(O)c2C(=O)c2c(O)cc3c(c21)CC(C(C)(C)O)O3 (configuration not stated) ) has IC50 equal to 21.9 µM

The compound identified as `COc1cc(O)c2c(c1)C(=O)c1cc(C)cc(O)c1C2=O` registered its IC50 at 192 µM

Lookup result for `OC[C@H]1NC[C@H](O)[C@@H](O)[C@@H]1O` ; measured IC50: 426 µM

Field IC50 (entry `CC(C)=CCc1c(C)cc(O)c2c(O)c3c(cc12)C(CC=C(C)C)(CC=C(C)C)C(O)=CC3=O` ) reads 6 µM

Data point: CC(C)=CCc1c(O)c(CC=C(C)C)c2c(c1O)C(=O)c1c(O)cc(C)c(CC=C(C)C)c1C2O (configuration not stated) ; IC50 = 6.3 µM

Consider C[C@H]1O[C@H](O[C@H]2[C@H](O)[C@@H](O)[C@@H](O[C@H]3[C@H](O)[C@@H](O)C(O)O[C@@H]3CO)O[C@@H]2CO)[C@H](O)[C@@H](O)[C@@H]1N[C@H]1C=C(CO)C(O)[C@H](O)[C@H]1O (single isomer, unassigned) . Its measured IC50 is 780 µM
